assay: Fecal excretion study in rats after oral NS, SF or CNS (LC–MS/MS)
Format: in vivo
conditions: rat feces, oral NS 60 mg/kg, 24 h
value_kind: Excretion amount (µg)
Give bare numbers, in µg.

CC(C)=CCC[C@](C)(O[C@@H]1O[C@H](CO)[C@@H](O)[C@H](O)[C@H]1O)[C@H]1CC[C@]2(C)[C@@H]1[C@H](O)C[C@@H]1[C@@]3(C)CC[C@H](O)C(C)(C)[C@@H]3[C@@H](O[C@@H]3O[C@H](CO)[C@@H](O)[C@H](O)[C@H]3O)C[C@]12C [ginsenoside Rg1] :: 29.239
CC(C)=CCC[C@](C)(O[C@@H]1O[C@H](CO)[C@@H](O)[C@H](O)[C@H]1O)[C@H]1CC[C@]2(C)[C@@H]1[C@H](O)C[C@@H]1[C@@]3(C)CC[C@H](O)C(C)(C)[C@@H]3[C@@H](O[C@@H]3O[C@H](CO)[C@@H](O)[C@H](O)[C@H]3O[C@@H]3O[C@@H](C)[C@H](O)[C@@H](O)[C@H]3O)C[C@]12C [ginsenoside Re] :: 6.150

Value lookup for Excretion amount; key = CC(C)=CCC[C@](C)(O[C@@H]1O[C@H](CO)[C@@H](O)[C@H](O)[C@H]1O)[C@H]1CC[C@]2(C)[C@@H]1[C@H](O)C[C@@H]1[C@@]3(C)CC[C@H](O[C@@H]4O[C@H](CO)[C@@H](O)[C@H](O)[C@H]4O[C@@H]4O[C@H](CO)[C@@H](O)[C@H](O)[C@H]4O)C(C)(C)[C@@H]3CC[C@]12C [ginsenoside Rd] 9.562
